B1: C22orf15 (parent)
chain: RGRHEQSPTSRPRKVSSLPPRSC

# Variants of: B1
# TEST METHOD NOTES: protein stability index of a GFP-peptide fusion (GPS, HEK-293T) (PSI 1-6); higher = more stable;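 further: lentivirally expressed fusions sorted by FACS into six bins by GFP to DsRed ratio, PSI derived from sequencing read proportions per bin multiplied by bin number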
# EXPERIMENTAL PARAMETERS: c terminus: native
Please note: fulfilled applies when protein stability index is 3 or greater, and not fulfilled applies otherwise.

MUTATION ID | ASSIGNED CATEGORY
C23F | fulfilled

Ask: Does the variant "C23N" have recorded protein stability index that is 3 or more?
Result: fulfilled

Ask: Does the variant "C23Q" have recorded protein stability index that is 3 or more?
Result: not fulfilled

Ask: Does the variant "G2C" have recorded protein stability index that is 3 or more?
Result: not fulfilled

Ask: Does the variant "V15S" have recorded protein stability index that is 3 or more?
Result: not fulfilled

Ask: Does the variant "P19T" have recorded protein stability index that is 3 or more?
Result: fulfilled

Ask: Does the variant "T9A" have recorded protein stability index that is 3 or more?
Result: fulfilled
